# Tested on: CP262
# assay.details: qHTS profiling for inhibitors of Plasmodium falciparum proliferation (AID 504749); note: nearly all actives have a fitted effect of over 60% in size
# condition.summary: P. falciparum in erythrocytes, SYBR Green DNA, 72 h; series mostly up to 28.7 µM
Results filed as inconclusive are left out. Calls of active or inactive are those of the source. Calls come from the whole dose curve; as a rule, active = well fitted inhibition curve with a large enough effect; inconclusive = small, poorly fitted or top-dose-only effect; inactive = flat fitted curve, though single readings scatter.
observed.property: outcome

Here is how some molecules turned out for outcome.
response.value for Cc1ncc([N+](=O)[O-])n1CC(C)O (stereo not given) (field: outcome) = inactive

The value of outcome measured for the molecule COc1cc(OC)c(C(=O)CCCN2CCCC2)c(OC)c1 turned out to be inactive

# outcome (molecule: C[C@]12CCC(=O)C=C1CC[C@@H]1[C@H]2[C@@H](O)C[C@@]2(C)[C@H]1CC[C@]2(O)C(=O)CO ) is inactive

Reported outcome ( C=C(c1ccc(C(=O)O)cc1)c1cc2c(cc1C)C(C)(C)CCC2(C)C ) = inactive

In plain terms, C[C@H](Cn1cnc2c(N)ncnc21)OCP(=O)(O)O has a documented outcome of inactive

Further cases:
Recorded outcome (molecule O=C(O)c1cccnc1Nc1cccc(C(F)(F)F)c1 ): inactive

For this molecule ( O=c1oc2cc(O)ccc2s1 ), measured outcome is inactive

Just so you know, measured outcome for COc1cc2c(cc1OC)C1CC(=O)C(CC(C)C)CN1CC2 (stereo not given) came out at inactive

CC(C)(S)[C@@H](N)C(=O)O yielded outcome of inactive

GET /value?item= COc1ccc(C2(C#N)CCC(C(=O)O)CC2)cc1OC1CCCC1 (stereo not given) &field=outcome returns inactive

Per the records, this molecule ( Cn1c(NCCN(CCO)CCCc2ccc([N+](=O)[O-])cc2)cc(=O)n(C)c1=O ) has outcome equal to inactive

Short answer for Nc1ccc(S(N)(=O)=O)cc1 : outcome was inactive

For reference, reported outcome for CC(S)C(=O)NCC(=O)O (stereo not given) stands at inactive

Nc1cccc2c1CN(C1CCC(=O)NC1=O)C2=O (stereo not given) yielded outcome of inactive

Sure, the documented outcome for CN1C(C(=O)Nc2ccccn2)=C(O)c2sccc2S1(=O)=O is inactive

According to the records, this molecule O=C(CS(=O)Cc1ccco1)NCC=CCOc1cc(CN2CCCCC2)ccn1 (stereo not given) displays outcome of inactive

The value of outcome measured for the molecule CCCCC(CC)COC(=O)C(C#N)=C(c1ccccc1)c1ccccc1 (stereo not given) turned out to be inactive

For record COC1=C(OC)C(=O)C(CCCCCCCCCCO)=C(C)C1=O the listed outcome is inactive

The molecule listed as Nc1ccn([C@@H]2O[C@H](CO)[C@@H](O)C2O)c(=O)n1 (stereo not given in full) has a reported outcome of inactive

For record Cc1nc2n(c(=O)c1CCN1CCC(c3noc4cc(F)ccc34)CC1)CCCC2 the listed outcome is inactive

====

# Test system: 3D7
# assay.details: qHTS profiling for inhibitors of Plasmodium falciparum proliferation (AID 504749); note: nearly all actives have a fitted effect of over 60% in size
# condition.summary: P. falciparum in erythrocytes, SYBR Green DNA, 72 h; series mostly up to 28.7 µM
# Method: NIH National Institute of Allergy and Infectious Diseases [NIAID] NIH Chemical Genomics Center [NCGC] […] Because mature erythrocytes lack DNA, only Plasmodium-derived DNA is detected. NCGC Assay Protocol Summary: The SYBR Green viability assay was adapted from a method described previously (Plouffe et al., 2008). […] The following morning, fluorescence intensity at 485(14) nm excitation and 535(25) nm emission wavelengths was measured on an EnVision (Perkin Elmer) plate reader. […]
Results filed as inconclusive are left out. Active and inactive are the calls of the source. Calls follow the shape of the dose curve; as a rule, active = well fitted inhibition curve with a large enough effect; inconclusive = small, poorly fitted or top-dose-only effect; inactive = flat fitted curve, though single readings scatter.
Pick one: True (active), False (inactive)

Please indicate how the test categorized Cc1c(OCC(F)(F)F)ccnc1CS(=O)c1nc2ccccc2[nH]1 (stereo not drawn) .
False

Status in this test for CN1CCC(=C2c3ccccc3CCc3sccc32)CC1 ?
False

Can you look up the reported call for CCCCCCCCCCCCCCCCCCCCCCO for me?
False

Could you check what this test reported for CC(S)C(=O)NCC(=O)O (stereo not drawn) ?
False
